target-or-test-system: Taq DNA polymerase (Thermus aquaticus)
Sequence (P19821 whole entry): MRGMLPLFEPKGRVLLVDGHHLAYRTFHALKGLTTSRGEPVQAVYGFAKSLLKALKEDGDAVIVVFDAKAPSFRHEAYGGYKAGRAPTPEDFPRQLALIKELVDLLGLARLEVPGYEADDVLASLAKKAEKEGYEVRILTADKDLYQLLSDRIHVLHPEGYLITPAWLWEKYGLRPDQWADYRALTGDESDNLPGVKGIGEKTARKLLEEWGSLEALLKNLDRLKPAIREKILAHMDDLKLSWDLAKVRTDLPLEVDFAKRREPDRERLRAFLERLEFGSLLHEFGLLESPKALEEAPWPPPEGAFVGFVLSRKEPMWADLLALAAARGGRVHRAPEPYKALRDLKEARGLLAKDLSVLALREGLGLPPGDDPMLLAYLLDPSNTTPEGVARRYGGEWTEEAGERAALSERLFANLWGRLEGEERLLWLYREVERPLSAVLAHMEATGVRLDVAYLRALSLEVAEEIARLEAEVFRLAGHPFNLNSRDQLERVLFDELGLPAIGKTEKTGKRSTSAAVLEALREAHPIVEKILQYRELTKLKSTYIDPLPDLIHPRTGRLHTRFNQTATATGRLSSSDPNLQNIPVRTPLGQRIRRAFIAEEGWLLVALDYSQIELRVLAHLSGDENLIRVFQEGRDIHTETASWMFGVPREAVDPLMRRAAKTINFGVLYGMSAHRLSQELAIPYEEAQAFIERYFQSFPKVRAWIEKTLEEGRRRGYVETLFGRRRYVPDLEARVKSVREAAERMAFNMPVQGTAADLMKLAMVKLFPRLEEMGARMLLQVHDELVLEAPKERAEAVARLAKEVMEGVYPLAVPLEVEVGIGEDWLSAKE
pIC50: −log10 of the molar value.
observed-property: pIC50

Reported Taq DNA polymerase (Thermus aquaticus) pIC50 for item CC(C)=CCC/C(C)=C/CC1=C(C)C(=O)c2ccccc2C1=O was < 3.70

====

target-or-test-system: T4 DNA polymerase (Enterobacteria phage T4)
Sequence (P04415 1-898): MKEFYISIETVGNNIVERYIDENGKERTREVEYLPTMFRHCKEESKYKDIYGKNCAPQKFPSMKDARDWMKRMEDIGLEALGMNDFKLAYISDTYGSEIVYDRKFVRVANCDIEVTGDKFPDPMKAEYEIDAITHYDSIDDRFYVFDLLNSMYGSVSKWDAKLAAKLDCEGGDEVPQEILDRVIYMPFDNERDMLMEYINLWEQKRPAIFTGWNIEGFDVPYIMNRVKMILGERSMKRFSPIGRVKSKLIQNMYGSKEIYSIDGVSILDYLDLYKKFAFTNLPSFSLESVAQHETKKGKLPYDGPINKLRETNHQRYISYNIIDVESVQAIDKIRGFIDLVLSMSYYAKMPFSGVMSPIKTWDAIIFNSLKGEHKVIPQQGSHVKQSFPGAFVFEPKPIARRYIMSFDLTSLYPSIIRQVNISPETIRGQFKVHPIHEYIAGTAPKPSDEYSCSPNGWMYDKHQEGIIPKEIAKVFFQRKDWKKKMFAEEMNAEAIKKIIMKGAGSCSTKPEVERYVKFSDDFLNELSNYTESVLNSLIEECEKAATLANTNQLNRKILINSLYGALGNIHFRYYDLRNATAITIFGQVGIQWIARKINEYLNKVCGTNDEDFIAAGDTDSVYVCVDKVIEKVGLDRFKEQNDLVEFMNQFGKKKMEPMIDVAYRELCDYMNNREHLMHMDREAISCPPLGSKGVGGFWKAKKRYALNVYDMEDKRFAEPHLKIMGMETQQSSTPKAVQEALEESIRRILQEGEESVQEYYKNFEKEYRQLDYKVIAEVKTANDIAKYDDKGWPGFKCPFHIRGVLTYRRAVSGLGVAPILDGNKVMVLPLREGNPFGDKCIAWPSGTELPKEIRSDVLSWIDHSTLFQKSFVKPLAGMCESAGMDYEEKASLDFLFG
pIC50: −log10 of the molar value.
observed-property: pIC50

Recorded result, CC(C)=CCC/C(C)=C/CC1=C(C)C(=O)c2ccccc2C1=O , pIC50: < 3.70
